test system: NCI-H441; assay: relative viability (nuclei count vs DMSO), 5 days (fraction); higher = more cells survive; conditions: first compound 500 µM
reported metric: relative viability
Give a plain numeric answer without units written out.

molecule	assayed system	observed value
O=C(O)CCCCC(CCSCc1ccccc1)SCc1ccccc1 (centres undefined) [CPI-613] + CC(=O)c1c(C)c2cnc(Nc3ccc(N4CCNCC4)cn3)nc2n(C2CCCC2)c1=O [Palbociclib] (partner 0.5 µM)	NCI-H441	0.0142
O=C(O)CCCCC(CCSCc1ccccc1)SCc1ccccc1 (centres undefined) [CPI-613] + NC(=O)Nc1cc(-c2cccc(F)c2)sc1C(=O)N[C@H]1CCCNC1 [AZD7762] (partner 0.2 µM)	NCI-H441	0.0052
O=C(O)CCCCC(CCSCc1ccccc1)SCc1ccccc1 (centres undefined) [CPI-613] + C[C@@H](Oc1cc(-c2cnn(C3CCNCC3)c2)cnc1N)c1c(Cl)ccc(F)c1Cl [Crizotinib] (partner 1 µM)	NCI-H441	0.343

Qu. Could you tell me which relative viability is on file for O=C(O)CCCCC(CCSCc1ccccc1)SCc1ccccc1 (centres undefined) [CPI-613] + Nc1nc2[nH]cc(CCc3ccc(C(=O)N[C@@H](CCC(=O)O)C(=O)O)cc3)c2c(=O)[nH]1 [Pemetrexed] (partner 0.2 µM) ?
Ans. 0.0045
